# EXPERIMENT NOTES: Photohemolytic activity against human erythrocytes at 60 uM after 15 mins in presence of 81197.4 mW/m2 of UVA light
# Type: ADME, cell-based, Erythrocyte
# MEASUREMENT CONTEXT: erythrocytes, read-out: Activity
OUTCOME MEASURE: hemolysis at 0.25 h, 60 µM (%)
Give just the number in %; leave the unit off.

# input Entry O=C(c1ccccc1)c1ccc2n1CCC2C(=O)O (stereo unspecified) has what hemolysis at 0.25 h, 60 µM?
# output 20
